# target-system: β 2-AR (Sus scrofa)
# Construct: made in house; host or cells: E. coli BL21 (DE3)
# assay-info: Zonal elution on oriented immobilised β 2-AR column (HPAC)
# Assay type: binding
result-type: Kd (µM)
One number for each entry, in µM.

Query: If you can, please state the reported Kd value of CN[C@@H](C)[C@H](O)c1ccccc1 .
Response: 168

----------
# target-system: β 2-AR (Sus scrofa)
# Construct: made in house; host or cells: E. coli BL21 (DE3)
# assay-info: Thermodynamic study (zonal elution at 10-45 °C, van't Hoff equation) on oriented immobilised β 2-AR
# Format: binding
# stated-conditions: Association constant, 283.15 K
# Description: The thermodynamic interaction between β 2-AR and ephedrine plus pseudoephedrine was described by the van't Hoff equation, listed as Eq. (3) and (4). [drawing 3] (3) [drawing 4] (4) In these equations, R is the ideal gas constant (8.31 J/mol/K), and T is the temperature in Kelvin. According to the semi-empirical rules summarised by Ross et al., when ΔG^θ<0, ΔH^θ>0 and ΔS^θ>0, hydrophobic interaction is the main interaction force during the binding process of a drug to protein. […]
result-type: Kd (µM)
One number for each entry, in µM.

CN[C@@H](C)[C@@H](O)c1ccccc1 : 202

Query: So what Kd did CN[C@@H](C)[C@H](O)c1ccccc1 get with β 2-AR (Sus scrofa)?
Response: 139

----------
I'd appreciate it if you could supply pKd values for the items below.
# target-system: β 2-AR (Sus scrofa, UniProt Q28997)
# Construct: made in house; host or cells: E. coli BL21 (DE3)
# Sequence (Q28997 whole entry): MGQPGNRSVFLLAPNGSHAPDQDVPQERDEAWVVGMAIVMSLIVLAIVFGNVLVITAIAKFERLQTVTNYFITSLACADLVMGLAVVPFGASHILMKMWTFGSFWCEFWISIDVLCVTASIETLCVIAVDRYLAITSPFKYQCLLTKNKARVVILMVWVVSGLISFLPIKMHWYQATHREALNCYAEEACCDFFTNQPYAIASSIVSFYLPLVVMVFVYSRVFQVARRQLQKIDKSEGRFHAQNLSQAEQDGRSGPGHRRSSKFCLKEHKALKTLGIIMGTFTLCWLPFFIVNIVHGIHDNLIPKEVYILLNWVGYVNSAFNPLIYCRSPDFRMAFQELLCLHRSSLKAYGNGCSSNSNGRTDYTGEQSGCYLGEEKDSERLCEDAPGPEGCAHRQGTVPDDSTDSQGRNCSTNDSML
# assay-info: Thermodynamic study (zonal elution at 10-45 °C, van't Hoff equation) on oriented immobilised β 2-AR
# Format: binding
# stated-conditions: Association constant, 303.15 K
Answers are plain numbers, as −log10 of the molar value.

CN[C@@H](C)[C@@H](O)c1ccccc1 : 3.60

Query: If you can, please state the reported pKd value of CN[C@@H](C)[C@H](O)c1ccccc1 .
Response: 3.79
